Target: human PAH with the R408W mutation (Homo sapiens, UniProt P00439, R408W)
Construct: expressed in transfected cells
Sequence (P00439 whole entry R408W): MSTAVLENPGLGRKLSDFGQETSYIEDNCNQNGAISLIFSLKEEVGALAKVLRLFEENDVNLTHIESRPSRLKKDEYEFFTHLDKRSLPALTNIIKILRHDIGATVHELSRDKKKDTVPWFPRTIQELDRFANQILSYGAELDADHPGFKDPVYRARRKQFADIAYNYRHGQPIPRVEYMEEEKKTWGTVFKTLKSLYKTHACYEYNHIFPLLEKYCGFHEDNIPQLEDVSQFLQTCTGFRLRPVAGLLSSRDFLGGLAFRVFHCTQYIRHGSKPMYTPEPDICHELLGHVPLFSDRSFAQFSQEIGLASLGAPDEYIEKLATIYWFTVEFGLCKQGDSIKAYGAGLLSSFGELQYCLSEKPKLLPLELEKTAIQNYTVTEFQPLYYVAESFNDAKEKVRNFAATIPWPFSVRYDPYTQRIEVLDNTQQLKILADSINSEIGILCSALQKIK
Experiment: Cell Based Phenylalanine Flux Assay
Conditions: A375 cells expressing human R408W PAH; 24 hrs compound incubation; 13C-Tyrosine by LC-MS; average where tested multiple times; read-out: AC50
measurementName: AC50

- O=C(c1cnc(-c2ccccn2)s1)N1CCc2[nH]cnc2[C@H]1c1cc2ccccc2cn1: < 500 nM
- O=C(c1cn(-c2ccccn2)nc1Cl)N1CCc2[nH]cnc2C1c1ccc2ccccc2n1 (stereo in doubt) [Example 110]: 1000 to 5000 nM
- N#Cc1ncoc1C(=O)N1CCc2[nH]cnc2C1c1ccc2ccccc2n1 (stereo in doubt) [Example 57]: < 500 nM
- O=C(c1cnn2cc(-c3ccccn3)ccc12)N1CCc2[nH]cnc2[C@H]1c1cc2ccccc2cn1: < 500 nM
- Cc1c(-c2nnc(C(=O)N3CCc4[nH]cnc4[C@H]3c3cc4ccccc4cn3)o2)cnn1C: < 500 nM
- CCn1cnnc1C(=O)N1CCc2[nH]cnc2C1c1ccc2ccccc2n1 (stereo in doubt): 500 to 1000 nM
- O=C(c1nnc(-c2cnn(C(F)F)c2)o1)N1CCc2[nH]cnc2[C@@H]1c1ncc2ccccc2n1: > 5000 nM
- Cn1ncnc1C(=O)N1CCc2[nH]cnc2[C@@H]1c1ncc2ccccc2n1: 1000 to 5000 nM
- C[C@@H]1CN(C(=O)c2nnc(C(C)(C)C)o2)[C@H](c2cc3ccccc3cn2)c2nc[nH]c21: < 500 nM
- Cn1cc(C(=O)N2CCc3[nH]cnc3[C@@H]2c2ccc3ccccc3n2)c(Cl)n1: 1000 to 5000 nM
- O=C(c1oc(C2(O)CC2)nc1C(F)F)N1CCc2[nH]cnc2C1c1ccc2ccccc2n1 (stereo in doubt) [Example 130]: < 500 nM
- O=C(c1ocnc1C(F)F)N1CCc2nc[nH]c2C1c1ccc2ccccc2n1 (stereo in doubt) [Example 51]: < 500 nM
- C[C@@H]1CN(C(=O)c2nnc(C3CC3)o2)[C@H](c2cc3ccccc3cn2)c2nc[nH]c21: 500 to 1000 nM
- C[C@H]1CN(C(=O)c2nnc(C(C)(C)C)o2)[C@H](c2cc3ccccc3cn2)c2nc[nH]c21: 500 to 1000 nM
- O=C(c1ocnc1-c1ccccn1)N1CCc2[nH]cnc2[C@H]1c1cc2ccccc2cn1: < 500 nM
- Cc1nc(-c2ccccn2)oc1C(=O)N1CCc2[nH]cnc2[C@@H]1c1ncc2ccccc2n1: 1000 to 5000 nM
- O=C(c1cnn2cc(-c3ncccc3F)ccc12)N1CCc2[nH]cnc2[C@H]1c1cc2ccccc2cn1: < 500 nM
- O=C(c1nnc(-c2ncccc2F)o1)N1CCc2[nH]cnc2[C@@H]1c1ncc2ccccc2n1: > 5000 nM
- O=C(CCc1nccs1)N1CCc2[nH]cnc2[C@H]1c1ncc2ccccc2n1: < 500 nM
- C[C@H]1CN(C(=O)c2nnc(-c3ccc(F)cn3)o2)[C@H](c2cc3ccccc3cn2)c2nc[nH]c21: 1000 to 5000 nM
- Cc1ccc(-c2nnc(C(=O)N3CCc4[nH]cnc4[C@@H]3c3ncc4ccccc4n3)o2)nc1: 1000 to 5000 nM
- CC(C)(C#N)c1nc(C(F)F)c(C(=O)N2CCc3[nH]cnc3C2c2ccc3ccccc3n2)o1 (stereo in doubt) [Example 127]: 1000 to 5000 nM
- C[C@H]1CN(C(=O)c2nnc(C(C)(C)F)o2)[C@@H](c2cc3ccccc3cn2)c2nc[nH]c21: 1000 to 5000 nM
- O=C(c1cncs1)N1CCc2[nH]cnc2C1c1ccc2ccccc2n1 (stereo in doubt) [Example 6]: > 5000 nM
- O=C(c1ocnc1C(F)F)N1CCc2nc[nH]c2C1c1ccc2ccccc2n1 (stereo in doubt) [Example 52]: 1000 to 5000 nM
- Cn1cc(-c2nnc(C(=O)N3CCc4[nH]cnc4C3c3ccc4ccccc4n3)o2)cn1 (stereo in doubt) [Example 48]: > 5000 nM
- O=C(CC1CC1)N1CCc2[nH]cnc2[C@@H]1c1cn2ccccc2n1: > 5000 nM
- Cc1nc(C(C)(C)F)oc1C(=O)N1CCc2[nH]cnc2C1c1ccc2ccccc2n1 (stereo in doubt) [Example 21]: > 5000 nM
- O=C(c1nnc(C2CC2)o1)N1CCc2[nH]cnc2[C@H]1c1ncc2ccccc2n1: 500 to 1000 nM
- Cc1nc(-c2cnn(C)c2)oc1C(=O)N1CCc2[nH]cnc2C1c1ccc2ccccc2n1 (stereo in doubt): > 5000 nM

---

Molecular target: human PAH with the R408W mutation (Homo sapiens, UniProt P00439, R408W)
Construct: expressed in transfected cells
Experiment: Cell Based Phenylalanine Flux Assay
Settings: A375 R408W cells, 24 hrs with compound, then 20 μM sepiapterin and 800 μM 13C9,15N-Phenylalanine for 4 hours; 13C-Tyrosine by LC-MS; average where tested multiple times; read-out: AC50
measurementName: AC50

- COCCNc1nnc(C(=O)N2C[C@@H](C)c3[nH]cnc3[C@H]2c2cc3ccccc3cn2)o1 (single isomer, unassigned): > 5 µM
- O=C(c1cncs1)N1CCc2[nH]cnc2C1c1cc2ccccc2cn1 (stereo not drawn): > 5 µM
- CC(C)(O)c1nc(C2CC2)c(C(=O)N2CCCc3[nH]cnc3C2c2cc3ccccc3cn2)o1 (stereo not drawn): 1 to 5 µM
- CC(C)(O)c1cc(C(=O)N2CCc3[nH]cnc3[C@H]2c2cc3ccccc3cn2)no1: 1 to 5 µM
- CC1CN(C(=O)c2nnc(-c3cnn(C)c3)o2)C(c2cc3ccccc3cn2)c2nc[nH]c21 (stereo not drawn): > 5 µM
- O=C(c1cnn(CC(F)(F)F)c1Cl)N1CCc2[nH]cnc2C1c1ccc2ccccc2n1 (stereo not drawn): > 5 µM
- O=C(c1ccn[nH]1)N1CCc2[nH]cnc2C1c1ccc2ccccc2n1 (stereo not drawn): > 5 µM
- O=C(C1CC1)N1CCc2nc[nH]c2C1c1cn2ccccc2n1 (stereo not drawn): 1 to 5 µM
- COCc1ncc(C(=O)N2CCc3[nH]cnc3[C@@H]2c2ccc3ccccc3n2)s1 (single isomer, unassigned): 1 to 5 µM

---

Molecular target: human PAH with the R408W mutation (Homo sapiens, UniProt P00439, R408W)
Construct: expressed in transfected cells
Test: Cell Based Phenylalanine Flux Assay
Details: A375 cells expressing human R408W PAH; 24 hrs compound incubation; 13C-Tyrosine by LC-MS; average where tested multiple times; read-out: AC50
measurementName: AC50

- O=C(c1nnc(-c2cnccn2)o1)N1CCc2[nH]cnc2[C@H]1c1cc2ccccc2cn1 [Example 469]: < 500 nM
- Fc1ccc(-c2nnc(N3CCc4[nH]cnc4[C@@H]3c3cc4ccccc4cn3)o2)cc1 [Example 336]: > 5000 nM
- O=C(c1nnc(-c2ccc(OC(F)(F)F)cn2)o1)N1CCc2[nH]cnc2[C@@H]1c1ncc2ccccc2n1 [Example 196]: > 5000 nM
- Cc1nc([C@H](C)O)oc1C(=O)N1CCc2[nH]cnc2C1c1ccc2ccccc2n1 (stereo in doubt) [Example 99]: 1000 to 5000 nM
- CC(F)(F)c1ncc(C(=O)N2CCc3[nH]cnc3C2c2ccc3ccccc3n2)s1 (stereo in doubt) [Example 39]: 500 to 1000 nM
- C[C@H]1CN(C(=O)c2cnco2)[C@H](c2cc3ccccc3cn2)c2nc[nH]c21 [Example 503]: 500 to 1000 nM
- CN1CCN(Cc2ccc3c(C(=O)N4CCc5[nH]cnc5[C@H]4c4cc5ccccc5cn4)cnn3c2)CC1 [Example 488]: < 500 nM
- O=C(c1cnc(-c2cnn(CC(F)(F)F)c2)s1)N1CCc2[nH]cnc2[C@H]1c1cc2ccccc2cn1 [Example 306]: 500 to 1000 nM
- Cc1nc(C(C)(C)C)oc1C(=O)N1CCc2[nH]cnc2C1c1ccc2ccccc2n1 (stereo in doubt) [Example 7]: 500 to 1000 nM
- C[C@@H]1CN(C(=O)c2cnco2)[C@H](c2cc3ccccc3cn2)c2nc[nH]c21 [Example 505]: < 500 nM
- O=C(c1cnn2cc(N3CCC(O)CC3)ccc12)N1CCc2[nH]cnc2[C@H]1c1cc2ccccc2cn1 [Example 478]: 500 to 1000 nM
- Cc1ccc2c(C(=O)N3CCc4[nH]cnc4[C@H]3c3cc4ccccc4cn3)cnn2c1 [Example 466]: < 500 nM
- O=C(CC1CC(F)C1)N1CCc2[nH]cnc2[C@@H]1c1cn2ccccc2n1 (stereo partly drawn) [Example 253]: 1000 to 5000 nM
- O=C(CC1CC1)N1CCc2[nH]cnc2C1c1ccc2ccccc2n1 (stereo in doubt) [Example 41]: < 500 nM
- Cc1nnc(C(=O)N2CCc3[nH]cnc3[C@H]2c2cc3ccccc3cn2)o1 [Example 318]: < 500 nM
- CN(C)CCc1ccc2c(C(=O)N3CCc4[nH]cnc4[C@H]3c3cc4ccccc4cn3)cnn2c1 [Example 468]: < 500 nM
- COc1ccc(-c2nnc(C(=O)N3C[C@H](C)c4[nH]cnc4[C@H]3c3cc4ccccc4cn3)o2)nc1 [Example 516]: 500 to 1000 nM
- O=C(c1nnc(-c2cn[nH]c2)o1)N1CCc2[nH]cnc2[C@H]1c1cc2ccccc2cn1 [Example 454]: 500 to 1000 nM
- O=C(c1ocnc1C1CC1)N1CCc2[nH]cnc2[C@@H]1c1cn2ccccc2n1 [Example 243]: 1000 to 5000 nM
- CC(C)(F)c1nnc(C(=O)N2CCc3[nH]cnc3C2c2ccc3ccccc3n2)o1 (stereo in doubt) [Example 106]: 1000 to 5000 nM
- CC(C)(F)c1ncc(C(=O)N2CCc3[nH]cnc3[C@H]2c2cc3ccccc3cn2)o1 [Example 339]: < 500 nM
- O=C(c1nnc(-c2c(F)cccc2F)o1)N1CCc2[nH]cnc2[C@@H]1c1cc2ccccc2cn1 [Example 335]: 1000 to 5000 nM
- O=C(c1cnc(-c2ccc(F)cn2)s1)N1CCc2[nH]cnc2[C@@H]1c1cc2ccccc2cn1 [Example 313]: 1000 to 5000 nM
- O=C(c1nnc(N2CCC(F)CC2)o1)N1CCc2[nH]cnc2[C@H]1c1cc2ccccc2cn1 [Example 425]: < 500 nM
- CC(C)(O)c1nnc(C(=O)N2CCc3[nH]cnc3[C@H]2c2cc3ccccc3cn2)o1 [Example 347]: 500 to 1000 nM
- O=C(c1cn[nH]c1Cl)N1CCc2[nH]cnc2C1c1ccc2ccccc2n1 (stereo in doubt) [Example 123]: 1000 to 5000 nM
- Cc1cccc(-c2ccc3c(C(=O)N4CCc5[nH]cnc5[C@H]4c4cc5ccccc5cn4)cnn3c2)n1 [Example 479]: < 500 nM
